Reference for the values: PubChem BioAssay AID2060885

Tested on: NCI-H23 complex spheroids with HUVEC/MSC, viability
Assay: Anticancer human tumor NCI-H23 cell line growth inhibition [RAS];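 note: spheroids exposed to compound for 7 days; 100% = DMSO vehicle control viability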
Conditions: second compound 0.316 µM; first compound 3.16 µM; active compounds read low
Sorting guide: entries reporting viability, T/C beneath 40% go in the Yes pile, the rest go in the No pile.

Could you please tell me whether viability, T/C recorded for C[C@@H](NC(=O)c1ncnc(N)c1Cl)c1ncc(C(=O)Nc2cc(C(F)(F)F)c(Cl)cn2)s1 + C#Cc1c(F)ccc2cc(O)cc(-c3ncc4c(N5CC6CCC(C5)N6)nc(OCC56CCCN5CC(F)C6)nc4c3F)c12 is less than 40%? No

Please indicate whether the reported viability, T/C of CC1(O)CCCC1n1c(=O)c(C(F)F)cc2cnc(NC3CCN(S(C)(=O)=O)CC3)nc21 (stereo unspecified) + C=CC(=O)N1CCN(c2nc(OCC3CCCN3C)nc3c(F)c(-c4nc(N)cc(C)c4C(F)(F)F)c(Cl)cc23)C(C)C1 is strictly below 40%. Yes

Dear colleague, could you confirm whether viability, T/C of CC(=O)OC12COC1CC(O)C1(C)C(=O)C(O)C3=C(C)C(OC(=O)C(O)C(NC(=O)OC(C)(C)C)c4ccccc4)CC(O)(C(OC(=O)c4ccccc4)C21)C3(C)C (stereo unspecified) + C=CC(=O)N1CCN(c2nc(OCC3CCCN3C)nc3c(F)c(-c4nc(N)cc(C)c4C(F)(F)F)c(Cl)cc23)C(C)C1 falls below 40%? Thanks. Yes

# strict comparison: is reported viability, T/C < 40%? input = CC(Nc1ccc2c(c1)OCCn1cc(N3C(=O)OCC3C(F)F)nc1-2)C(N)=O (stereo unspecified) + C#Cc1c(F)ccc2cc(O)cc(-c3ncc4c(N5CC6CCC(C5)N6)nc(OCC56CCCN5CC(F)C6)nc4c3F)c12 No

Is viability, T/C of CCC(CC)c1cc(NC2CCC(N)C2)n2nccc2n1 (stereo unspecified) + C=CC(=O)N1CCN(c2nc(OCC3CCCN3C)nc3c(F)c(-c4nc(N)cc(C)c4C(F)(F)F)c(Cl)cc23)C(C)C1 strictly below 40%? Yes

Could you please tell me whether viability, T/C recorded for C[C@@H](NC(=O)c1ncnc(N)c1Cl)c1ncc(C(=O)Nc2cc(C(F)(F)F)c(Cl)cn2)s1 + C=CC(=O)N1CCN(c2nc(OCC3CCCN3C)nc3c(F)c(-c4nc(N)cc(C)c4C(F)(F)F)c(Cl)cc23)C(C)C1 is less than 40%? No

Is the reported viability, T/C for Cc1nc(N2CCC3(CC2)COC(C)C3N)c(CO)nc1Sc1ccnc(N)c1Cl (stereo unspecified) + C#Cc1c(F)ccc2cc(O)cc(-c3ncc4c(N5CC6CCC(C5)N6)nc(OCC56CCCN5CC(F)C6)nc4c3F)c12 strictly below 40%? Yes

Is it true that viability, T/C reported for Cc1nc(N2CCC3(CC2)COC(C)C3N)c(CO)nc1Sc1ccnc(N)c1Cl (stereo unspecified) + C=CC(=O)N1CCN(c2nc(OCC3CCCN3C)nc3c(F)c(-c4nc(N)cc(C)c4C(F)(F)F)c(Cl)cc23)C(C)C1 is less than 40%? Yes

State whether 40% exceeds viability, T/C recorded for CC(C)NCC(C(=O)N1CCN(c2ncnc3c2C(C)CC3O)CC1)c1ccc(Cl)cc1 (stereo unspecified) + C=CC(=O)N1CCN(c2nc(OCC3CCCN3C)nc3c(F)c(-c4nc(N)cc(C)c4C(F)(F)F)c(Cl)cc23)C(C)C1 . Yes

In the record for NC1c2ccccc2OC12CCN(c1cnc3c(N4CCCc5ncccc54)n[nH]c3n1)CC2 (stereo unspecified) + C=CC(=O)N1CCN(c2nc(OCC3CCCN3C)nc3c(F)c(-c4nc(N)cc(C)c4C(F)(F)F)c(Cl)cc23)C(C)C1 , is viability, T/C less than 40%? Yes

Please determine if CC(C)NCC(C(=O)N1CCN(c2ncnc3c2C(C)CC3O)CC1)c1ccc(Cl)cc1 (stereo unspecified) + C#Cc1c(F)ccc2cc(O)cc(-c3ncc4c(N5CC6CCC(C5)N6)nc(OCC56CCCN5CC(F)C6)nc4c3F)c12 is below 40% in terms of viability, T/C. No

----------
Test system: NCI-H23 complex spheroids with HUVEC/MSC, viability
Assay: Anticancer human tumor NCI-H23 cell line growth inhibition [RAS];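 note: spheroids exposed to compound for 7 days; 100% = DMSO vehicle control viability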
Conditions: second compound 0.1 µM; first compound 3.16 µM; active compounds read low
endpoint.name: viability, T/C (%)
Form entry: value (%) — number only.

Could you please provide reported viability, T/C for Cc1nc(N2CCC3(CC2)COC(C)C3N)c(CO)nc1Sc1ccnc(N)c1Cl (centres undefined) + C=CC(=O)N1CCN(c2nc(OCC3CCCN3C)nc3c(F)c(-c4nc(N)cc(C)c4C(F)(F)F)c(Cl)cc23)C(C)C1 ? Thanks! 19.7

Answer with the recorded viability, T/C for the molecule listed here: CC1(O)CCCC1n1c(=O)c(C(F)F)cc2cnc(NC3CCN(S(C)(=O)=O)CC3)nc21 (centres undefined) + C#Cc1c(F)ccc2cc(O)cc(-c3ncc4c(N5CC6CCC(C5)N6)nc(OCC56CCCN5CC(F)C6)nc4c3F)c12 76.4

Respond only with viability, T/C recorded for CC(=O)OC12COC1CC(O)C1(C)C(=O)C(O)C3=C(C)C(OC(=O)C(O)C(NC(=O)OC(C)(C)C)c4ccccc4)CC(O)(C(OC(=O)c4ccccc4)C21)C3(C)C (centres undefined) + C=CC(=O)N1CCN(c2nc(OCC3CCCN3C)nc3c(F)c(-c4nc(N)cc(C)c4C(F)(F)F)c(Cl)cc23)C(C)C1 22.8

Give the reported viability, T/C for this molecule. CC1(O)CCCC1n1c(=O)c(C(F)F)cc2cnc(NC3CCN(S(C)(=O)=O)CC3)nc21 (centres undefined) + C=CC(=O)N1CCN(c2nc(OCC3CCCN3C)nc3c(F)c(-c4nc(N)cc(C)c4C(F)(F)F)c(Cl)cc23)C(C)C1 23.6

----------
Tested on: NCI-H23 complex spheroids with HUVEC/MSC, viability
Experiment: Anticancer human tumor NCI-H23 cell line growth inhibition [RAS]; active = viability on the fitted dose curve at most 10% of control; inactive = the rest;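 note: spheroids exposed to compound for 7 days; 100% = DMSO vehicle control viability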
Details: second compound 0.0316 µM; first compound 3.16 µM
// allowed return values: label 1 for active, label 0 for inactive

What call does the record list for CC(=O)OC12COC1CC(O)C1(C)C(=O)C(O)C3=C(C)C(OC(=O)C(O)C(NC(=O)OC(C)(C)C)c4ccccc4)CC(O)(C(OC(=O)c4ccccc4)C21)C3(C)C (stereo not given) + C=CC(=O)N1CCN(c2nc(OCC3CCCN3C)nc3c(F)c(-c4nc(N)cc(C)c4C(F)(F)F)c(Cl)cc23)C(C)C1 ? label 0

Answer briefly: the call reported for NC1c2ccccc2OC12CCN(c1cnc3c(N4CCCc5ncccc54)n[nH]c3n1)CC2 (stereo not given) + C#Cc1c(F)ccc2cc(O)cc(-c3ncc4c(N5CC6CCC(C5)N6)nc(OCC56CCCN5CC(F)C6)nc4c3F)c12 in this assay. label 0

Look up the recorded call for CC(Nc1ccc2c(c1)OCCn1cc(N3C(=O)OCC3C(F)F)nc1-2)C(N)=O (stereo not given) + C=CC(=O)N1CCN(c2nc(OCC3CCCN3C)nc3c(F)c(-c4nc(N)cc(C)c4C(F)(F)F)c(Cl)cc23)C(C)C1 in this test. label 0

Entry CCC(CC)c1cc(NC2CCC(N)C2)n2nccc2n1 (stereo not given) + C=CC(=O)N1CCN(c2nc(OCC3CCCN3C)nc3c(F)c(-c4nc(N)cc(C)c4C(F)(F)F)c(Cl)cc23)C(C)C1 : call = ? label 1

Test call for this molecule, please: Cc1nc(N2CCC3(CC2)COC(C)C3N)c(CO)nc1Sc1ccnc(N)c1Cl (stereo not given) + C=CC(=O)N1CCN(c2nc(OCC3CCCN3C)nc3c(F)c(-c4nc(N)cc(C)c4C(F)(F)F)c(Cl)cc23)C(C)C1 label 0

----------
System: NCI-H23 complex spheroids with HUVEC/MSC, viability
Assay: Anticancer human tumor NCI-H23 cell line growth inhibition [RAS];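 note: spheroids exposed to compound for 7 days; 100% = DMSO vehicle control viability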
Settings: second compound 0.0316 µM; first compound 0.000949 µM; active compounds read low
endpoint.name: viability, T/C (%)
The reply should contain only the number, in %.

Give reported viability, T/C for CC1(C)CCC(Nc2ncc(C(F)(F)F)c(-c3c[nH]c4c(P(C)(C)=O)c(C#N)ccc34)n2)CN1 (centres undefined) + C#Cc1c(F)ccc2cc(O)cc(-c3ncc4c(N5CC6CCC(C5)N6)nc(OCC56CCCN5CC(F)C6)nc4c3F)c12 (NCI-H23 complex spheroids with HUVEC/MSC, viability) 77.4

Please tell me the measured viability, T/C for CC1(C)CCC(Nc2ncc(C(F)(F)F)c(-c3c[nH]c4c(P(C)(C)=O)c(C#N)ccc34)n2)CN1 (centres undefined) + C=CC(=O)N1CCN(c2nc(OCC3CCCN3C)nc3c(F)c(-c4nc(N)cc(C)c4C(F)(F)F)c(Cl)cc23)C(C)C1 ; system: NCI-H23 complex spheroids with HUVEC/MSC, viability. 33.6

Fill in: viability, T/C on NCI-H23 complex spheroids with HUVEC/MSC, viability, entry CCc1c2c(nc3ccc(O)cc13)-c1cc3c(c(=O)n1C2)COC(=O)[C@]3(O)CC + C#Cc1c(F)ccc2cc(O)cc(-c3ncc4c(N5CC6CCC(C5)N6)nc(OCC56CCCN5CC(F)C6)nc4c3F)c12 74.6

Jot down viability, T/C (NCI-H23 complex spheroids with HUVEC/MSC, viability) of CCc1c2c(nc3ccc(O)cc13)-c1cc3c(c(=O)n1C2)COC(=O)[C@]3(O)CC + C=CC(=O)N1CCN(c2nc(OCC3CCCN3C)nc3c(F)c(-c4nc(N)cc(C)c4C(F)(F)F)c(Cl)cc23)C(C)C1 . 33.3
